test: Stability of the compound at pH 1.3 assessed as degradation half life; type: physicochemical; conditions: buffer
reportedEndpoint: half-life (h)

COc1cc([C@@H]2c3cc4c(cc3[C@@H](O[C@@H]3O[C@@H]5CO[C@@H](C)O[C@H]5[C@H](O)[C@H]3O)[C@H]3COC(=O)[C@H]23)OCO4)cc(OC)c1O [ETOPOSIDE] ... 2.88

###

# maps each entry to its concentration at 1.5 h
test: Drug concentration in rat plasma at 10 mg/kg, po measured after 90 mins; format: ADME, organism-based
reportedEndpoint: concentration at 1.5 h

Cc1cc(C)n(CCC[C@H]2CO[C@@H](c3nc(-c4ccccc4)c(-c4ccccc4)[nH]3)OC2)n1 ... 1300 nM
c1ccc(-c2nc([C@H]3OC[C@@H](CCCCN4CCSCC4)CO3)[nH]c2-c2ccccc2)cc1 ... 2200 nM
